target entity: CAMKK2 (human)
experimental protocol: radiometric filter-binding kinase assay, Kinase HotSpot
details: compound 0.5 µM; ATP 10 µM
readout: residual activity (%)
Field format: number, assumed %, no unit text.

CSc1nc(-c2ccc(F)cc2)c(-c2ccnc(NC(C)c3ccccc3)c2)[nH]1 (stereo unspecified)    84
CC(C)n1cnc2c(Nc3cccc(Cl)c3)nc(NCCO)nc21    68.2
CCN1/C(=C/C(C)=O)Sc2ccc(OC)cc21    95.5
Cc1ccc(NC(=O)c2ccc(CN3CCN(C)CC3)cc2)cc1Nc1nc(-c2cccnc2)cs1    101
O=C(Nc1ccc(Cl)cc1)c1ccccc1NCc1ccncc1    93.9
CS(=O)c1ccc(-c2nc(-c3ccc(F)cc3)c(-c3ccncc3)[nH]2)cc1 (stereo unspecified)    110

Data request: Check the records and state residual activity for COc1ccc(-c2cnc3c(-c4ccsc4)cnn3c2)cc1
Data returned: 72.9

Data request: Check the records and state residual activity for O=c1cc(-c2cccc3c2Sc2ccccc2S3)oc(N2CCOCC2)c1
Data returned: 133

Data request: Check the records and state residual activity for COc1cc2nccc(Oc3ccc(NC(=S)NC(=O)c4ccccc4C)cc3)c2cc1OC
Data returned: 75

Data request: Check the records and state residual activity for Nc1nc(Nc2ccc(S(N)(=O)=O)cc2)nn1C(=O)c1c(F)cccc1F
Data returned: 61.5

Data request: Check the records and state residual activity for CC(C)[C@H](CO)Nc1nc(Nc2cccc(Cl)c2)c2ncn(C(C)C)c2n1
Data returned: 70.9

Data request: Check the records and state residual activity for O=C1Cc2c([nH]c3ccc([N+](=O)[O-])cc23)-c2ccccc2N1
Data returned: 79.5

Data request: Check the records and state residual activity for O=C1Nc2cc(Br)ccc2/C1=C1/Nc2ccccc2/C1=N\O
Data returned: 70.1

Data request: Check the records and state residual activity for O=C1Nc2ccccc2/C1=C\c1c(Cl)[nH]c2ccccc12
Data returned: 97.8

---

target entity: CDK5 CDK5R1 p35 (human) (UniProt Q00535+Q15078)
experimental protocol: radiometric filter-binding kinase assay, Kinase HotSpot
details: compound 0.5 µM; ATP 10 µM
readout: residual activity (%)
Field format: number, assumed %, no unit text.

Illustrative cases are given below, each with its answer.
Nc1nc(Nc2ccc(S(N)(=O)=O)cc2)nn1C(=O)c1c(F)cccc1F    0.212
CSc1nc(-c2ccc(F)cc2)c(-c2ccnc(NC(C)c3ccccc3)c2)[nH]1 (configuration not stated)    101

Data request: Check the records and state residual activity for Cc1cc2ncc(-c3ccccc3)nc2cc1C
Data returned: 89.1

Data request: Check the records and state residual activity for O=C1Cc2c([nH]c3ccc([N+](=O)[O-])cc23)-c2ccccc2N1
Data returned: 7.98

Data request: Check the records and state residual activity for COc1cc2ncnc(Nc3ccc(F)c(Cl)c3)c2cc1OCCCN1CCOCC1
Data returned: 103

Data request: Check the records and state residual activity for COc1ccc(-c2cnc3c(-c4ccsc4)cnn3c2)cc1
Data returned: 64.5

Data request: Check the records and state residual activity for Nc1n[nH]c2nnc(-c3c(-c4ccccc4)nn4ccccc34)cc12
Data returned: 105

Data request: Check the records and state residual activity for O=c1cc(N2CCNCC2)oc2c(-c3ccccc3)cccc12
Data returned: 102

Data request: Check the records and state residual activity for CS(=O)c1ccc(-c2nc(-c3ccc(F)cc3)c(-c3ccncc3)[nH]2)cc1 (configuration not stated)
Data returned: 97.3
